Sourced from patent US9381172B2

Test system: various neoplastic cell lines from both solid and hematologic origins
Assay: Cell Growth Inhibition, various neoplastic cell lines
Type: cell-based
Details: all tumor cell lines investigated; FIG. 3A; read-out: IC50 values of cell growth suppression
Protocol: HeLa (ATCC: CCL-2), A549-human lung carcinoma (ATCC: CCL-185), Lewis lung carcinoma (LLC) (ATCC: CRL-1642), and melanoma cells (ATCC: CRL-11147) were cultured in DMEM (Hyclone) supplemented with 10% fetal bovine serum (Hyclone) and 50 μg/mL gentamicin sulfate (Invitrogen). […] All cell lines were plated at 1×10^5/mL in the appropriate medium. […] Cells were then collected 48 h after treatment, and cell number and viability were determined by trypan blue exclusion. […]
measure: IC50

Q. Answer with IC50 of `CCc1ccc(-c2nnc(SCC(=O)Nc3cc(C)cc(C)c3)[nH]2)cc1` measured for various neoplastic cell lines from both solid and hematologic origins.
A. 5 to 10 µM
